endpoint_name: melting point (°C)
One number for each entry, in °C.

In [3]: df
Out[3]:
              molecule  endpoint_name  numeric_value
0  COC(=O)c1snnc1C1CC1  melting point             47

Reported melting point for "N#Cc1ccccc1NC(=O)c1snnc1C1CC1" was 124
